Values compiled from paper PMC10367348.

Target: T1, biotinylated BSA conjugated peptide (influenza A virus, also: biotinylated, BSA conjugated)
T1 peptide: KSLLTEVETPI
Experiment: BLI
Ends that are not written are not given here.
Here the recorded Kd is given for each entry.
# output: bare number, implied unit µM

scFv AU1 (scFv, V domains shown, also called AU1 scFv) VH: EVQLLESGGGLVQPGGSLRLSCAASGFTFSSYAMSWVRQAPGKGLEWVSTILQHGQRTLYADSVKGRFTISRDNSKNTLYLQMNSLRAEDTAVYYCAKNRAVFDYWGQGTLVTVSS VL: DIQMTQSPSSLSASVGDRVTITCRASQSISSYLNWYQQKPGKAPKLLIYTASTLQSGVPSRFSGSGSGTDFTLTISSLQPEDFATYYCQQYRQRPPTFGQGTKVEIK | 0.94

// Kd value for scFv GU1 (scFv, V domains shown) VH: EVQLLESGGGLVQPGGSLRLSCAASGFTFSSYAMSWVRQAPGKGLEWVSGISQLGGYTGYAGSVKGRFTISRDNSKNTLYLQMNSLRAEDTAVYYCAKNRATFDYWGQGTLVTVSS VL: DIQMTQSPSSLSASVGDRVTITCRASQSISSYLNWYQQKPGKAPKLLIYAASHLQSGVPSRFSGSGSGTDFTLTISSLQPEDFATYYCQQSQHKPLTFGQGTKVEIK : 0.35

// Kd value for scFv UU1 (scFv, V domains shown) VH: EVQLLESGGGLVQPGGSLRLSCAASGFTFSSYAMSWVRQAPGKGLEWVSTISMSGKRTQYADSVKGRFTISRDNSKNTLYLQMNSLRAEDTAVYYCAKRHRYFDYWGQGTLVTVSS VL: DIQMTQSPSSLSASVGDRVTITCRASQSISSYLNWYQQKPGKAPKLLIYRASKLQSGVPSRFSGSGSGTDFTLTISSLQPEDFATYYCQQPGWRPKTFGQGTKVEIK : 8.6

// Kd value for scFv JU1 (scFv, V domains shown) VH: EVQLLESGGGLVQPGGSLRLSCAASGFTFSSYAMSWVRQAPGKGLEWVSRISAQGNQTRYSDSVKGRFTISRDNSKNTLYLQMNSLRAEDTAVYYCAKKSSYFDYWGQGTLVTVSS VL: DIQMTQSPSSLSASVGDRVTITCRASQSISSYLNWYQQKPGKAPKLLIYKASTLQSGVPSRFSGSGSGTDFTLTISSLQPEDFATYYCQQWRTRPLTFGQGTKVEIK : 3.61
